target: RaTG13 receptor-binding domain (Bat coronavirus RaTG13, UniProt A0ABF7PLN6)
property measured: binding result

>>> experimental_result("3521 (antibody, V domains shown) VH: QVQLQESGPGLVKPSETLSLTCTVSGGSISSYHWSWIRQPPGKGLEWIGYIYYSGSTIYNPSLKSRVSISVDTSQNQFSLKLSSVTAADTAVYYCAREMPRGYSGYDYWDLYAFDIWGQGTMVTVSS VL: DIQLTQSPSFLSASVRDRVTITCRASQGISSYLAWYQQKPGKAPKLLIYAASTLQSGVPSRFSGSGSGTEFTLTISSLQPEDFATYYCQQLNNYPHTFGQGTKLEIK")
"binds"
>>> experimental_result("3581 (antibody, V domains shown) VH: QVQLQESGPGLVKPSETLSLTCTVSGGSISTYYWSWTRQPPGKGLEWIGNIYYSGSTIYNPSLKSRVTISVDTSKNQFSLKLTSVTAADTAVYYCAREMRRGYSGYDYWDLYAFDIWGQGTMVTVSS VL: DIQLTPSPSFLSASVGDRVTITCRASQGISSYLAWYQQTPGKAPKLLIYAASTLQSGVPSRFSGSGSGTEFTLTISSLQPEDFATYYCQQLNSYPHTFGQGTKLEIK")
"binds"
